Hello, the source for this data is patent EP2455080A1, in case you need it.

assay: in vivo; conditions: Wistar, rat, iv, 1 mg/kg

[
  {
    "COMPOUND": "Cc1cc(-c2noc(-c3nn(C)c4c3CCC(C)(C)C4)n2)cc(C)c1CCN1CCC(C(=O)O)CC1",
    "UNITS_SYMBOL": "h",
    "half-life": 3.5
  },
  {
    "COMPOUND": "CCCCCCCCc1ccc(CCC(N)(CO)CO)cc1 [Fingolimod, reference compound]",
    "UNITS_SYMBOL": "h",
    "half-life": 26.1
  },
  {
    "COMPOUND": "Cn1nc(-c2nc(-c3ccc(CCN4CCC(C(=O)O)CC4)c(C(F)(F)F)c3)no2)c2c1CC(C)(C)CC2",
    "UNITS_SYMBOL": "h",
    "half-life": 8.2
  }
]

----------
Each entry below carries its reported AUC(0-t).
assay: in vivo; details: Wistar, rat, iv, 1 mg/kg

[
  {
    "COMPOUND": "Cn1nc(-c2nc(-c3ccc(CCN4CCC(C(=O)O)CC4)c(C(F)(F)F)c3)no2)c2c1CC(C)(C)CC2",
    "AUC(0-t)": "6230 ng·h/mL"
  },
  {
    "COMPOUND": "CCCCCCCCc1ccc(CCC(N)(CO)CO)cc1 [Fingolimod, reference compound]",
    "AUC(0-t)": "279 ng·h/mL"
  },
  {
    "COMPOUND": "Cc1cc(-c2noc(-c3nn(C)c4c3CCC(C)(C)C4)n2)cc(C)c1CCN1CCC(C(=O)O)CC1",
    "AUC(0-t)": "2630 ng·h/mL"
  }
]
